# Tested on: Bacillus subtilis DB104 (SP-AmyQ fusion secretion)
# measurementDescription: AmyQ secretion efficiency, weighted average sort bin (1 = best secretion, 10 = worst) (bin number (weighted average, 1-10)); higher = lower secretion efficiency
Rule: YES for AmyQ secretion efficiency not less than 6, NO for anything less.

Exercise: hey, is AmyQ secretion efficiency for this one >= 6? "MRKKRRRSLITLGLASVIGTSSFLIPFTSKTASAETL"
Solution: NO

Exercise: hey, is AmyQ secretion efficiency for this one >= 6? "MNLRKILLSSALSLGMLVSAAPVLYTSS"
Solution: YES

Exercise: hey, is AmyQ secretion efficiency for this one >= 6? "MKKRKRRNFKRFIAAFLVLALMIRRVPARVLAKST"
Solution: YES

Exercise: hey, is AmyQ secretion efficiency for this one >= 6? "MKNMSCKLVVSVTLFFSFLTAHAQNS"
Solution: YES

Exercise: hey, is AmyQ secretion efficiency for this one >= 6? "MKKAAAVLLSLGLVFGFSYGAGHVREAKTK"
Solution: YES

Exercise: hey, is AmyQ secretion efficiency for this one >= 6? "MKKRLIQVMIMFTLLLRRKRRRRADAADS"
Solution: YES

Exercise: hey, is AmyQ secretion efficiency for this one >= 6? "MNKLKRLSMLTVMIASVFIFSSHALGAQY"
Solution: NO

Exercise: hey, is AmyQ secretion efficiency for this one >= 6? "MLKRTSFVSLFISSAVLLSILLPSGQAHAQSA"
Solution: NO

Exercise: hey, is AmyQ secretion efficiency for this one >= 6? "MKKQIITATTAVVLGSTLFAGALSAQSI"
Solution: NO

Exercise: hey, is AmyQ secretion efficiency for this one >= 6? "MKMKSGMEQAVSVLLLLSRLPVQASFTSE"
Solution: YES

Exercise: hey, is AmyQ secretion efficiency for this one >= 6? "MKKTIMFVAVAALSTTAFGAHASAKEI"
Solution: NO

Exercise: hey, is AmyQ secretion efficiency for this one >= 6? "MRKKCSTCRWILVLLLSCLSGKSAYAATS"
Solution: NO

Exercise: hey, is AmyQ secretion efficiency for this one >= 6? "MKRLLVSLRVWMVFLMNWVTPDRKTAAAAKK"
Solution: YES

###

# System: Bacillus subtilis DB104 (SP-AmyQ fusion secretion)
# measurementDescription: AmyQ secretion efficiency, weighted average sort bin (1 = best secretion, 10 = worst) (bin number (weighted average, 1-10)); higher = lower secretion efficiency
Assignment: determine reported AmyQ secretion efficiency for the given sequences.

Exercise: Supply AmyQ secretion efficiency value. Item: "MKVLLSALLLLLFAFEPSVSGKKL"
Solution: 6.17

Exercise: Supply AmyQ secretion efficiency value. Item: "MKTLRTLCVLMILSGVIFFGLKIDCKDI"
Solution: 5.37

Exercise: Supply AmyQ secretion efficiency value. Item: "MKSKGSIMACLILFSFTITTFINTETISMFSN"
Solution: 7.38

Exercise: Supply AmyQ secretion efficiency value. Item: "MNFKKTVRKRRSISALALSVSGVASAHEI"
Solution: 7.55

Exercise: Supply AmyQ secretion efficiency value. Item: "MKSKGSIMACLILFSFTITTFINTETISAFSD"
Solution: 6.02

Exercise: Supply AmyQ secretion efficiency value. Item: "MKKAFLVFLSVVLVTTVFLVKQQESVPQAKQL"
Solution: 7.73

Exercise: Supply AmyQ secretion efficiency value. Item: "MFNRLRVCFLAALIMAFTLPNSVYAQKP"
Solution: 2

###

# Test system: Bacillus subtilis DB104 (SP-AmyQ fusion secretion)
# measurementDescription: AmyQ secretion efficiency, weighted average sort bin (1 = best secretion, 10 = worst) (bin number (weighted average, 1-10)); higher = lower secretion efficiency
recordedMetric: AmyQ secretion efficiency
Just the number, please.

Exercise: Supply AmyQ secretion efficiency value. Item: "MGLGKKLSVAVAASFMSLSPGVQAAEG"
Solution: 1.73

Exercise: Supply AmyQ secretion efficiency value. Item: "MRNLTKYTTSKGGLCTAAQMVFVTHASAEES"
Solution: 7.66

Exercise: Supply AmyQ secretion efficiency value. Item: "MTKKAWFLPLVCVLLISGWLAPAASVSAQTT"
Solution: 2.17

Exercise: Supply AmyQ secretion efficiency value. Item: "MTMLRKIIGWILLLCIIASFIVTPLFAFTVIASGKEV"
Solution: 7.88

Exercise: Supply AmyQ secretion efficiency value. Item: "MFNRLFRVCFLAALIMAFTVYAQKP"
Solution: 6.93

Exercise: Supply AmyQ secretion efficiency value. Item: "MNKFLKSNFRFLLAAALGISLLASSNFAKASND"
Solution: 1.03

Exercise: Supply AmyQ secretion efficiency value. Item: "MIAYFGKCLLLVTIMFLGVLFTAVVVIAGMQQANHG"
Solution: 5.06

Exercise: Supply AmyQ secretion efficiency value. Item: "MRSYIKVLTMCFLGLPTALADNS"
Solution: 3.96

Exercise: Supply AmyQ secretion efficiency value. Item: "MLTKRQLTIYIMLLGLIAWFPGAAQAEEK"
Solution: 2.9

Exercise: Supply AmyQ secretion efficiency value. Item: "MTKKTSIILITSAWFLPLVCVLLISGWLAPAASASAQTT"
Solution: 2.35

Exercise: Supply AmyQ secretion efficiency value. Item: "MLKKKWMVGLLAGCLAAGGFSYNAFSTEN"
Solution: 6.06

Exercise: Supply AmyQ secretion efficiency value. Item: "MKKQIITATTAVVLGSTLFAGAASTQSI"
Solution: 2.06

Exercise: Supply AmyQ secretion efficiency value. Item: "MKQFAITLSVLCALILLVPTLLVIPFFHNKEAGASV"
Solution: 6.58

Exercise: Supply AmyQ secretion efficiency value. Item: "MKSKGSIMACKRLFSFTITTFINTETISAFSN"
Solution: 6.73

Exercise: Supply AmyQ secretion efficiency value. Item: "MNLRKNSFFILLSSALSLGMLVSAAPVLATSS"
Solution: 1.98

Exercise: Supply AmyQ secretion efficiency value. Item: "MRGKSAVLLSLIMLIAGFLIDFSFQM"
Solution: 7.67

Exercise: Supply AmyQ secretion efficiency value. Item: "MRPVFPLILSAVLFLSCFFGAREASASKR"
Solution: 1.24

Exercise: Supply AmyQ secretion efficiency value. Item: "MKKAFILSAAAAVGLFTFGGVQQSSAKEL"
Solution: 4.21

Exercise: Supply AmyQ secretion efficiency value. Item: "MLKRTSFVSSLFISSAVLLSILLPSGQAHARKR"
Solution: 3.12

Exercise: Supply AmyQ secretion efficiency value. Item: "MLCVMMLLFSAIAEEEDEEAQAKDQ"
Solution: 7.25

Exercise: Supply AmyQ secretion efficiency value. Item: "MFKKLLLATSALTFSLSLVLKLRGHAKAQEV"
Solution: 6.07

Exercise: Supply AmyQ secretion efficiency value. Item: "MLMLLSTLLIGIMLLTFAPSAFAKQD"
Solution: 4.38

Exercise: Supply AmyQ secretion efficiency value. Item: "MSTMIVRMTLPLLIVCLAFSSFSASARAASE"
Solution: 2.3

Exercise: Supply AmyQ secretion efficiency value. Item: "MKLWMRKTLVVLFTIVTFGLVSPPAAQMADKP"
Solution: 1.81

Exercise: Supply AmyQ secretion efficiency value. Item: "MLKKVRKRRKKLVGSTLGAFSFSSDASAKHV"
Solution: 6.7

Exercise: Supply AmyQ secretion efficiency value. Item: "MHLIRAAGAVCLAVVLIRFNEDQHQAEGENT"
Solution: 5.07

Exercise: Supply AmyQ secretion efficiency value. Item: "MKVLLSALLLLLFAFEPSESGKKL"
Solution: 6.5

Exercise: Supply AmyQ secretion efficiency value. Item: "MKRTWNVCKRALLSVLLVAGSVPFHAEAKKP"
Solution: 3.1

Exercise: Supply AmyQ secretion efficiency value. Item: "MMTLCVMMLLFSAIASFPVSAQAKDQ"
Solution: 7.11

Exercise: Supply AmyQ secretion efficiency value. Item: "MAIIIAIIAAVIVIAALITFEVRNASPG"
Solution: 5.68

Exercise: Supply AmyQ secretion efficiency value. Item: "MKKWIYTYKVLSIAGIGGFSVHAASS"
Solution: 6.93

Exercise: Supply AmyQ secretion efficiency value. Item: "MKKRLIAPMFSSLLSAASLAFFAMSGSAQAAAY"
Solution: 3.7

Exercise: Supply AmyQ secretion efficiency value. Item: "MKKTIMSFVAVAALSTTAFGAHASFKEI"
Solution: 5.37

Exercise: Supply AmyQ secretion efficiency value. Item: "MRKKRVITCVMAASLTLGSLLPAGYSSAKED"
Solution: 3.75

Exercise: Supply AmyQ secretion efficiency value. Item: "MKLSVKIAGVLTVAAAAMTAKMYPTAKGN"
Solution: 5.7

Exercise: Supply AmyQ secretion efficiency value. Item: "MKKAAAVLLSLGLVFGFSYGAGHVKEAKTK"
Solution: 6.72

Exercise: Supply AmyQ secretion efficiency value. Item: "MFLKLLLATSALTFSLSLVLPLDGHAKAQEV"
Solution: 2.93

Exercise: Supply AmyQ secretion efficiency value. Item: "MRSKKLWISLLFALFTMAFSNMSAQAAGK"
Solution: 2.16

Exercise: Supply AmyQ secretion efficiency value. Item: "MFNRLFRVCFLAALIMAFTLPNSPYAQKP"
Solution: 7.43

Exercise: Supply AmyQ secretion efficiency value. Item: "MKRLLSTLLIGIMLLTFAPSAFAKKR"
Solution: 2.03

Exercise: Supply AmyQ secretion efficiency value. Item: "MKSKWMSGLLLVAVGFSFITQVMVHAGET"
Solution: 6.13

Exercise: Supply AmyQ secretion efficiency value. Item: "MRMLWRSSSQCGLALTLAPCAQAAEP"
Solution: 8.18

Exercise: Supply AmyQ secretion efficiency value. Item: "MKNMSCKLVVSVTLFFSFLTIGPLAHAQKR"
Solution: 1.94

Exercise: Supply AmyQ secretion efficiency value. Item: "MFFVLMAFIICLSLILSVLAAPPSGAKAESV"
Solution: 5.38

Exercise: Supply AmyQ secretion efficiency value. Item: "MKRLLSTLLIGIMLLTFAPSVFAKQD"
Solution: 1.93

Exercise: Supply AmyQ secretion efficiency value. Item: "MKKWIYVVLVLSIAGIGGFSSHAASS"
Solution: 6.17

Exercise: Supply AmyQ secretion efficiency value. Item: "MHLIRAAGAVCLAVVLIAGCRKRRRQHQAEGENT"
Solution: 6.76

Exercise: Supply AmyQ secretion efficiency value. Item: "MRKKRVITCVMAASLTLGSLLPAGYATAATP"
Solution: 2.04

Exercise: Supply AmyQ secretion efficiency value. Item: "MPYLKRVLLLLVTGLFMSLFAVTATASAQDD"
Solution: 3.08

Exercise: Supply AmyQ secretion efficiency value. Item: "MTMLRKIIGWILLLCIIVSVAATITLIPLFAFTVIASGKEV"
Solution: 4.26

Exercise: Supply AmyQ secretion efficiency value. Item: "MFMLFMNASLVLFAVVFVFAVKGAPAKAETH"
Solution: 5.11

Exercise: Supply AmyQ secretion efficiency value. Item: "MLCVMMLLFSAIASFPVSAQVKDQ"
Solution: 5.88

Exercise: Supply AmyQ secretion efficiency value. Item: "MKWMCSICCAAVLLAGGAQAEAV"
Solution: 3.54

Exercise: Supply AmyQ secretion efficiency value. Item: "MKWMCKKCCKKVLLAGGAAQAEAV"
Solution: 7.14

Exercise: Supply AmyQ secretion efficiency value. Item: "MRGKSAVLLSLIMLIAGFLITASFPTVTGPPFSFSFQM"
Solution: 8.88

Data origin, for the record: the supplement of paper PMC9942255
